assayed.target: human CYP3A4 (Homo sapiens)
Construct: from tissue; host or cells: liver microsomes
Sequence (P08684 whole entry): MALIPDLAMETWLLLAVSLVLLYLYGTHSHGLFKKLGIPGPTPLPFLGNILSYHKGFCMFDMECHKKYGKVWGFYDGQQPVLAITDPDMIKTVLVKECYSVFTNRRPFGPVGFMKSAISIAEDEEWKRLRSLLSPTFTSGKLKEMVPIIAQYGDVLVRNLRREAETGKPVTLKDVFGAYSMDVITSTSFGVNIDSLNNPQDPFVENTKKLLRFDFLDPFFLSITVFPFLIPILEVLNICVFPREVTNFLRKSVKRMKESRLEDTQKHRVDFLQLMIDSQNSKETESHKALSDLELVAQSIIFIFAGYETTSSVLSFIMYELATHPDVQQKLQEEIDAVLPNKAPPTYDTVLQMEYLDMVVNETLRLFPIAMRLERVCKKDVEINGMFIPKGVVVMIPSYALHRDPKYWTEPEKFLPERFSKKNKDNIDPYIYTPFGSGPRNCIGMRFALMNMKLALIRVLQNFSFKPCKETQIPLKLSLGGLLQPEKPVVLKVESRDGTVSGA
assay.name: Time-dependent inhibition assay (IC50 shift approach), liver microsomes
Format: in vitro ADME
details: human liver microsomes 0.1 mg/mL, 30 min pre-incubation with/without NADPH, midazolam probe
measured.metric: CYP3A4 IC50 shift (TDI shift)
Returns: the value as a bare number; no unit string appended.

molecule	assayed.target	CYP3A4 IC50 shift (TDI shift)
Cl.O=C(/C=C/CNCCOc1ccc(/C(=C(/CC(F)(F)F)c2ccccc2)c2ccc3[nH]nc(F)c3c2)cc1)N1CCCC1 [Compound 13]	human CYP3A4 (Homo sapiens)	1.0
Cl.[2H]C([2H])([2H])N(C(=O)/C=C/CNCCOc1ccc(/C(=C(/CC(F)(F)F)c2ccccc2)c2ccc3[nH]ncc3c2)cc1)C([2H])([2H])[2H] [Compound 23]	human CYP3A4 (Homo sapiens)	15.8
O=C(/C=C/CNCCOc1ccc(/C(=C(/CC(F)(F)F)c2ccccc2)c2ccc3[nH]nc(F)c3c2)cn1)N1CCCCC1 [Compound 55]	human CYP3A4 (Homo sapiens)	14.6
CNC(=O)CCCNCCOc1ccc(/C(=C(/CC(F)(F)F)c2ccccc2)c2ccc3[nH]nc(F)c3c2)cc1.Cl [Compound 39]	human CYP3A4 (Homo sapiens)	1.8
CNC(=O)/C=C/CNCCOc1ccc(/C(=C(\c2ccccc2)C2CCC2)c2ccc3[nH]nc(F)c3c2)cn1.Cl [Compound 32]	human CYP3A4 (Homo sapiens)	5.3

# get_value(readout= CYP3A4 IC50 shift (TDI shift), system= human CYP3A4 (Homo sapiens)) for CC/C(=C(/c1ccc(OCCNC/C=C/C(=O)N2CCCC2)nc1)c1ccc2[nH]nc(F)c2c1)c1ccccc1.Cl [Compound 30] 2.2

Same for O=C(/C=C/CNCCOc1ccc(/C(=C(/CC(F)(F)F)c2ccccc2)c2ccc3[nH]nc(F)c3c2)cn1)NCCO [Compound 7] 2.2

For CNC(=O)/C=C/CNCCOc1ccc(/C(=C(/CC(F)(F)F)c2ccccc2)c2ccc3[nH]nc(F)c3c2)c(C)n1.Cl [Compound 44] then? 5.1

And for CN(C)C(=O)CCCNCCOc1ccc(/C(=C(/CC(F)(F)F)c2ccccc2)c2ccc3[nH]nc(F)c3c2)cn1 [Compound 2] ? 4.4

Query Cl.O=C(/C=C/CNCCOc1ccc(/C(=C(\c2ccccc2)C2CCC2)c2ccc3[nH]ncc3c2)cn1)N1CCCC1 [Compound 37] next 10.4

What do you have for CC/C(=C(/c1ccc(OCCNC/C=C/C(=O)NC)nc1)c1ccc2[nH]ncc2c1)c1ccc(F)cc1Cl.Cl [Compound 59] ? 25.4

Now the same for CC/C(=C(/c1ccc(OCCNC/C=C/C(=O)NC)nc1)c1ccc2[nH]nc(F)c2c1)c1ccccc1.Cl [Compound 27] 3.5

// same read-out, input: CNC(=O)/C=C/CNCCOc1ccc(/C(=C(/CC(F)(F)F)c2ccccc2)c2ccc3[nH]ncc3c2)cn1 [Compound 9] 3.0

And then CS(=O)(=O)O.O=C(/C=C/CNCCOc1ccc(/C(=C(/CC(F)(F)F)c2ccccc2)c2ccc3[nH]nc(F)c3c2)cn1)N1CCC1 [Compound 60] , what is it? 2.0

Query CC/C(=C(/c1ccc(OCCNC/C=C/C(=O)N2CCCC2)cc1)c1ccc2[nH]nc(F)c2c1)c1ccccc1.Cl [Compound 29] next 1.4

Try this molecule too: CC/C(=C(/c1ccc(OCCNC/C=C/C(=O)NC)cc1)c1ccc2[nH]nc(F)c2c1)c1ccccc1.Cl [Compound 26] 1.2

Same question, CNC(=O)/C=C/CNCCOc1ccc(/C(=C(\c2ccccc2)C2CCC2)c2ccc3[nH]ncc3c2)cn1.Cl [Compound 33] this time 9.2
